Please provide measured normalised response for the entries that follow.
System: MCF-10A
Test: normalised response (% of control), CellTox Green; higher = less cell death (100 = DMSO, 0 = benzethonium chloride kill control)
Details: incubation time: 72 h
Report only the number, with the unit % understood.

Q: # query: normalised response of entry CCCCC(=O)OCC(=O)[C@]1(O)Cc2c(O)c3c(c(O)c2[C@@H](O[C@H]2C[C@H](NC(=O)C(F)(F)F)[C@H](O)[C@H](C)O2)C1)C(=O)c1c(OC)cccc1C3=O [Valrubicin] (500 nM)
Result: 113

Q: Continue with CCCS(=O)(=O)Nc1ccc(F)c(C(=O)c2c[nH]c3ncc(-c4ccc(Cl)cc4)cc23)c1F [Vemurafenib] (1000 nM)
Result: 88.2

Q: Now the same for N#Cc1ccc(C(c2ccc(C#N)cc2)n2cncn2)cc1 [Letrozole] (10000 nM)
Result: 103

Q: Also need Cc1ccc(-c2cc(C(F)(F)F)nn2-c2ccc(S(N)(=O)=O)cc2)cc1 [Celecoxib] (100 nM) , thanks.
Result: 102

Q: Next record, please: COc1cc2c(Oc3ccc4[nH]c(C)cc4c3F)ncnc2cc1OCCCN1CCCC1 [Cediranib] (1000 nM)
Result: 91.5

Q: Please answer likewise for O=C(Cc1ccc(-c2ccc(OCCN3CCOCC3)cc2)cn1)NCc1ccccc1 [KX2-391] (10000 nM)
Result: 50.1

Q: Next record, please: N#Cc1ccc(C(c2ccc(C#N)cc2)n2cncn2)cc1 [Letrozole] (100 nM)
Result: 105

Q: Same question for Nc1ncn([C@H]2C[C@H](O)[C@@H](CO)O2)c(=O)n1 [Decitabine] (100 nM) please.
Result: 105

Q: Lookup Nc1ccccc1NC(=O)c1ccc(CNC(=O)OCc2cccnc2)cc1 [Entinostat] (1000 nM)
Result: 90.1

Q: Next record, please: CCN(CC)CCCC(C)Nc1c2ccc(Cl)cc2nc2ccc(OC)cc12 (stereo unspecified) [Mepacrine] (50000 nM)
Result: 103

Q: What about Nc1nc(F)nc2c1ncn2[C@@H]1O[C@H](CO)[C@@H](O)[C@@H]1O [Fludarabine] (100 nM) ?
Result: 98.4

Q: Queued: CC[C@H](Nc1ncnc2[nH]cnc12)c1nc2cccc(F)c2c(=O)n1-c1ccccc1 [GS-1101] (10000 nM)
Result: 102

Q: Follow-up entry: CNC(=O)c1cc(Oc2ccc(NC(=O)Nc3cc(C(C)(C)C)nn3-c3ccc4ncccc4c3)c(F)c2)ccn1 [Rebastinib] (1000 nM)
Result: 101

Q: Now the compound C=CC(=O)N1CCC[C@@H](n2nc(-c3ccc(Oc4ccccc4)cc3)c3c(N)ncnc32)C1 [Ibrutinib] (10 nM)
Result: 63.2

Q: // repeat for O=C(/C=C/c1cccnc1)NCCCCC1CCN(C(=O)c2ccccc2)CC1 [Daporinad] (10 nM) and report
Result: 96

Q: Please give the result for CCc1cncnc1N1CCN(Cc2nc3ccc(C(F)(F)F)cc3[nH]2)CC1 (10000 nM) too.
Result: 105
